Biological target: T1, human PRLR on cells (human, UniProt P16471 25-622)
T1 construct: Endogenous on T47D cells, transfected in Baf3-hPRLR cells; also called hPRLR; T47D cells
T1 sequence: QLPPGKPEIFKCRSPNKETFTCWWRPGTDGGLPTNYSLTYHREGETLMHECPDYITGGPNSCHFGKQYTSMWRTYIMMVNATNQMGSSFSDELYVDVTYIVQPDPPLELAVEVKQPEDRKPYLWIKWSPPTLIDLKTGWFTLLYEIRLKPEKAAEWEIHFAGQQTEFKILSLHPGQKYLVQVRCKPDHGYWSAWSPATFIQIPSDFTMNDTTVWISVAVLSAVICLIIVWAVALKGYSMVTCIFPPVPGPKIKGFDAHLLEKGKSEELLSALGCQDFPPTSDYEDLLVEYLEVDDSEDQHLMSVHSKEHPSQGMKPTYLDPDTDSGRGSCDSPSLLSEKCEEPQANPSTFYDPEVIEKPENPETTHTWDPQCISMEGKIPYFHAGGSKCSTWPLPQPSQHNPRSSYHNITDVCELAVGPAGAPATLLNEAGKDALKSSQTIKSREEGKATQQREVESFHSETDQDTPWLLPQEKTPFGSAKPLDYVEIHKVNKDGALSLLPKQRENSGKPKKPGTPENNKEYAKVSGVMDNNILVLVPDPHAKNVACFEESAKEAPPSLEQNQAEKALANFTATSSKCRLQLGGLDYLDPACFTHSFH
Assay: FACS T47D 10 ug/mL
parameter: FACS GeoMean-neg
Please respond with just the number, no unit label.

Ab5 (antibody, V domains shown, murine monoclonal, isotype G2a; also called murine Ab5) VH: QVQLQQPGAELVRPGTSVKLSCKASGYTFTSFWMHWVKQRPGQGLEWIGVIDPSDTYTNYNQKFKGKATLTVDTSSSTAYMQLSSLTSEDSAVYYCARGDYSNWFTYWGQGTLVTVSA VL: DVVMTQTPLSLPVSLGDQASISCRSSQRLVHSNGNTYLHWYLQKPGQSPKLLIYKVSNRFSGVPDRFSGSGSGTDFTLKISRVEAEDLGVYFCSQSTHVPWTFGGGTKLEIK : 1610
Ab13 (antibody, V domains shown, murine monoclonal, isotype G2a; also called murine Ab13) VH: QVQLQQPGAELVRPGTSVKLSCKASGYTFTSFWMHWVKQRPGQGLEWIGVIDPSDSHTNYNQKFKGKATLTVNTSSSTAYMHLSSLTSEDSAVYYCARGDYSNWFTYWGQGTLVTVSA VL: DVVMTQTPFSLPVSLGDQASISCRSSQSLVHSNGNTYLHWYLQKPGQSPKLLIYKVSNRFSGVPDRFSGSGSGTDFTLKISRVEAEDLELYFCSQSTHVPWTFGGGTKLEIK : 1500

For the next question, use this binder.
**Q:** Output FACS GeoMean-neg of Ab11 (antibody, V domains shown, murine monoclonal, isotype G1; also called murine Ab11) VH: EVKLVESGGGLVQPGGSLKLSCAASGFTFSDYYMFWVRQTPEKSLEWVAYISNGGGSTYYPDTVKGRFTISRDNAKNTLYLQMSRLKSEDTAMYYCSRQLFYYGSRGAMGYWGQGTSVTVSS VL: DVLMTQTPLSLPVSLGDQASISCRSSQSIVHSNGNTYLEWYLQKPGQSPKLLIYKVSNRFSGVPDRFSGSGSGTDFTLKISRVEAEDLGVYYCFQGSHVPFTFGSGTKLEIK
**A:** 2220

Data provenance: patent US20170022281A1
